The measurements presented in this section are drawn from patent US20240067657A1.

varicella zoster virus DNA polymerase (Varicella-zoster virus, UniProt P09252) data, read-out IC50
Sequence (P09252 whole entry): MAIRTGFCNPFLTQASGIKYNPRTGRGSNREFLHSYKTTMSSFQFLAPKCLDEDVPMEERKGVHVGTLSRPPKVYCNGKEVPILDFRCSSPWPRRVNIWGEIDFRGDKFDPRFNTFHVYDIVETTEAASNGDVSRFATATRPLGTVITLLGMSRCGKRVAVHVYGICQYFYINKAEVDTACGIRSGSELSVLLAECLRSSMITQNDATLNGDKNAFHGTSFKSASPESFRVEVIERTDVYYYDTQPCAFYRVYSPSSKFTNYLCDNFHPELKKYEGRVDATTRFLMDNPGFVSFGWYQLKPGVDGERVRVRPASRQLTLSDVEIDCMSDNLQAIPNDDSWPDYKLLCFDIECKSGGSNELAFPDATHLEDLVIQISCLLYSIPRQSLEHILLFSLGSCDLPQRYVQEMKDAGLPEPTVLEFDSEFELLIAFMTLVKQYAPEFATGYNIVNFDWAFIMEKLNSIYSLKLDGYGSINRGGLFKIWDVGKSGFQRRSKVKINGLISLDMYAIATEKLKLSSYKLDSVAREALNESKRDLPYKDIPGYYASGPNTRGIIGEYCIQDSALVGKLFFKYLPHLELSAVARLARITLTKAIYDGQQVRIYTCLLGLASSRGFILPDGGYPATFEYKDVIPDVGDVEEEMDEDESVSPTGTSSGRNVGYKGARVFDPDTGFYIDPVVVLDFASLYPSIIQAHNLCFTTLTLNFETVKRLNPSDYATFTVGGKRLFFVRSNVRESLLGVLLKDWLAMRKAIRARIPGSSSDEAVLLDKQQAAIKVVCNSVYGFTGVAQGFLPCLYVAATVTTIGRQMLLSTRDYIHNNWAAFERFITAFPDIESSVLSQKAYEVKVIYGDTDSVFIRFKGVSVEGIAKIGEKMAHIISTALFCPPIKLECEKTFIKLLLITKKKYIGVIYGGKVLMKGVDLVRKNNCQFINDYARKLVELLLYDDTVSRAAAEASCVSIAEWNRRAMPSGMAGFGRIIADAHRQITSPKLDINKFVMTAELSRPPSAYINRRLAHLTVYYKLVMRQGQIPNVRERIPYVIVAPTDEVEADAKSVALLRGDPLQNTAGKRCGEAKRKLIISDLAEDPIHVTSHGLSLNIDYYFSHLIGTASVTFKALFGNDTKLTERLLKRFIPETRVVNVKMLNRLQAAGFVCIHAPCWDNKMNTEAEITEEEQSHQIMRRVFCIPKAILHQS
readoutLabel: IC50 (nM)

1. COC(C)(C)Cc1cnc(C(=O)NCc2ccc(Cl)cc2)cc1O[C@H]1CCN2C(=O)OC[C@@H]2C1 ... 3.07
2. Cc1ncc(-c2cnc(C(=O)NCc3ccc(Cl)cc3)cc2O[C@H]2CCN3C(=O)OC[C@@H]3C2)s1 ... 3.76
3. O=C(NCc1ccc(Cl)cc1)c1cc(O[C@H]2CCN3C(=O)OC[C@@H]3C2)c(-c2cscn2)cn1 ... 6.03
4. O=C(NCc1ccc(Cl)cc1)c1cc(O[C@H]2CCN3C(=O)OC[C@@H]3C2)c(C2CC(F)(F)C2)cn1 ... 26.4

---

Recorded EC50 for the following molecules
Test system: HSV-1 Strain F in Vero or MRC5 cells
Assay: Viral qPCR assay HSV-1 (V0/V1, V2/V3), EC50
Assay type: cell-based
Settings: Human alphaherpesvirus 1, Vero, VERO cells, 10%; read-out: HSV1 Cell (EC50) VERO 10%
Procedure: Viral qPCR Assays (V0/V1) MRC5 cells, Vero cells, and MeWo cells were obtained from ATCC and were maintained at 37° C./5% CO2/90% relative humidity in Minimal Essential Medium with 10% fetal bovine serum, […] L-glutamine, 100 units/ml penicillin and 100 ug/ml streptomycin. […] 7-point, serial 10-fold dilutions of a plasmid standard were run on each plate to generate a standard curve, and genome copies numbers were calculated by plotting experimental Ct onto linear regression of the standard curve. […]
readoutLabel: EC50

1. CC(=O)N1CCC(Oc2cc(C(=O)NCc3ccc(Cl)cc3)ncc2-c2cn[nH]c2)CC1 [Compound 69] ... 1110 nM
2. Cn1cc(-c2cnc(C(=O)NCc3ccc(Cl)c(F)c3)cc2O[C@H]2CCN3C(=O)OC[C@@H]3C2)cn1 [Compound 96] ... 118 nM
3. COCCn1ccc(-c2cnc(C(=O)NCc3ccc(Cl)cc3)cc2O[C@H]2CCN3C(=O)OC[C@@H]3C2)n1 [Compound 28] ... 327 nM
4. Cn1cc(-c2cnc(C(=O)NCc3ccc(Cl)cc3)cc2O[C@H]2CCN3C(=O)CC[C@H]3C2)cn1 (racemic) [Compound 170] ... 266 nM

---

target: varicella zoster virus DNA polymerase (Varicella-zoster virus, UniProt P09252)
pIC50: −log10 of the molar value.
Recorded pIC50 for the following compounds
readoutLabel: pIC50

1) CC(=O)N1CCC(Oc2cc(C(=O)NCc3ccc(Cl)cc3)ncc2-c2cnc(C3CC3)o2)CC1 [Compound 67] ... 7.66
2) CSc1cnc(C(=O)NCc2ccc(Cl)cc2)cc1O[C@H]1CCN2C(=O)OC[C@@H]2C1 [Compound 147a] ... 7.63
3) O=C(NCc1ccc(Cl)cc1)c1cc(O[C@H]2CCN3C(=O)OC[C@@H]3C2)c(CN2CCC3OCCC32)cn1 (mixture of isomers) [Compound 142] ... 7.89
4) O=C(NCc1ccc(Cl)cc1)c1cc(O[C@H]2CCN3C(=O)OC[C@@H]3C2)c(CCn2cccn2)cn1 [Compound 115] ... 6.88
5) CC(=O)N1CCC(Oc2cc(C(=O)NCc3ccc(Cl)cc3)ncc2-c2cn[nH]c2)CC1 [Compound 69] ... 7.49
6) O=C(NCc1ccc(Cl)cc1)c1cc(O[C@H]2CCN3C(=O)OC[C@@H]3C2)c(-c2ccn(CC(F)(F)F)n2)cn1 [Compound 14] ... 7.39
7) COC/C=C/c1cnc(C(=O)NCc2ccc(Cl)cc2)cc1OC1CCN(C(C)=O)CC1 [Compound 74] ... 7.46
8) O=C(NCc1ccc(Cl)cc1)c1cc(O[C@H]2CCN3C(=O)OC[C@@H]3C2)c(OCC(F)(F)F)cn1 [Compound 126] ... 7.78
9) CC(=O)N1CCC(Oc2cc(C(=O)NCc3ccc(Cl)cc3)ncc2-c2nc(C)ns2)CC1 [Compound 49] ... 7.75
10) O=C(NCc1ccc([N+](=O)[O-])cc1)c1cc(O[C@H]2CCN3C(=O)OC[C@@H]3C2)c(-c2cnn(C(F)F)c2)cn1 [Compound 82] ... 8.04
11) Cc1cnc(-c2cnc(C(=O)NCc3ccc(Cl)cc3)cc2O[C@H]2CCN3C(=O)OC[C@@H]3C2)s1 [Compound 41] ... 8.41
12) N#Cc1ccc(CNC(=O)c2cc(O[C@H]3CCN4C(=O)OC[C@@H]4C3)c(-c3cnn(C(F)F)c3)cn2)c(F)c1 [Compound 84] ... 7.57
13) CC(C)n1ccc(-c2cnc(C(=O)NCc3ccc(Cl)cc3)cc2O[C@H]2CCN3C(=O)OC[C@@H]3C2)n1 [Compound 15] ... 7.70
14) O=C(NCc1ccc(Cl)cc1)c1cc(O[C@H]2CCN3C(=O)OC[C@@H]3C2)c(-c2cnc(C3CC3)o2)cn1 [Compound 33] ... 8.57
